Origin of the recorded values: PubChem BioAssay

- Protocol Summary: A549 lung cancer cell viability effects, profiling panel, resazurin fluorescence, 24 h, PK04 Diversity Set (AID 1171); note: test concentration not given here
- Study Conditions: higher = more signal, called active from +8 up or from −8 down
Assign z-score to each entry below.
Give a plain numeric answer without units written out.

I am curious: what z-score value has been reported for CC(CO)N1C(=O)[C@@H]2[C@H]3C(=O)OCC=C[C@H]3OC23C=CCN(c2ccc4ccccc4c2)C(=O)[C@@H]13 (some centres undefined) ? 0.873

What about C=C[C@H](OC)[C@@H](O)c1ccc(OC)c(O)c1 ? -0.112

Now try C=CCNC(=O)[C@@H]1[C@H]2C(=O)O[C@H](c3ccccc3)[C@H](c3ccccc3)N2[C@H](c2ccc(OCCO)cc2)[C@@]12C(=O)Nc1ccc(C#CCNC(N)=O)cc12 . 0.36

Now try C=CCN1C(=O)[C@@]2(O[C@@H](CCO)[C@H]([Si](C)(C)c3ccc(OC)cc3)[C@H]2C)c2cc(N3CCCCC3=O)ccc21 . -2.04

Same again, this time with COC(=O)C(CC#Cc1ccc2c(c1)[C@]1(C(=O)N2)[C@H](C(N)=O)[C@H]2C(=O)O[C@H](c3ccccc3)[C@H](c3ccccc3)N2[C@@H]1c1ccccc1OCCO)C(=O)OC -2.83

Next: CCCCCCc1nc(Cc2cc(OC)c(OC)c(OC)c2)c(C)c2c1[Si](C(C)C)(C(C)C)OC2 0.504

Also, COc1cc(CO)cc(I)c1O[C@H]1C=C(C(=O)NCCO)C[C@@H](N(CCN2CCOCC2)C(=O)C2CCCO2)[C@@H]1O (some centres undefined) please. -0.0953

Then C=CCNC(=O)[C@@H]1[C@H]2C(=O)O[C@H](c3ccccc3)[C@H](c3ccccc3)N2[C@H](c2ccc(OCCO)cc2)[C@@]12C(=O)N(C(=O)OCCOC)c1ccccc12 ? -0.0659

Then this compound: [N-]=[N+]=NCc1ccccc1[C@H]1OC(c2ccc(OCCCO)cc2)=N[C@@]1(CCS(=O)(=O)c1ccccc1)C(=O)O 0.355

Same for C=CCC(OC(C)=O)[C@@H]1[C@@H](N(Cc2cccc3ccccc23)C(=O)c2ccc(C)cc2)c2cc(OCCCO)ccc2N1C(=O)Cc1ccc2ccccc2c1 (some centres undefined) 0.433

Please give the result for C=C(COC)C(=O)CC[C@@H](OC(=O)c1ccccc1-c1ccccc1C(=O)O)c1ccccc1OCCO too. 0.393

Let us now turn to C[C@@]1([C@@H](NS(=O)(=O)c2cccc3cccnc23)c2ccc(-c3ccccc3)cc2)C[C@H]1C1CCCCC1 -0.892

Another: COCCCNC(=O)[C@]1(Cc2ccccc2N=[N+]=[N-])N=C(c2ccc(OCCCO)cc2)O[C@@H]1c1ccccc1 0.345

Can you handle COc1cc2c(cc1O)C(C)N(Cc1sc3ccccc3c1Cl)CC2 (centres undefined) next? -0.205

How about COC(=O)Cn1c(C(=O)N(C)C)cc2c1C[C@H]1CN(C(=O)c3ccccc3)[C@@](Cc3ccccc3)(C(=O)OC)[C@@H]21 ? 0.374

How about COCCOC(=O)N1C(=O)[C@@]2(c3cc(C#CCNC(N)=O)ccc31)[C@H](C(=O)Nc1nc3ccccc3s1)[C@H]1C(=O)O[C@H](c3ccccc3)[C@H](c3ccccc3)N1[C@@H]2c1ccc(O)cc1 ? 0.14

Another compound: Cc1ccc(S(=O)(=O)N2[C@@H](c3ccccc3)C(C(=O)O)=CC[C@H]2c2ccc(F)cc2)cc1 0.649

Next compound up: CN1C(=O)C2C=CC(C(O)c3cccs3)N(N(c3ccccc3)c3ccccc3)C2C1=O (centres undefined) -0.659

Queued: CCOC(=O)C1=CCC(c2cccn2C(=O)OC(C)(C)C)N(S(=O)(=O)c2ccc(C)cc2)C1 (centres undefined) -0.373

Continue with C#CCN(C(=O)OC(C)(C)C)[C@H](CO)c1ccccc1 0.659

Another compound to look at: CCCCCCCCCCC(O)C1C=CC2C(=O)N(C)C(=O)C2N1Nc1ccccc1 (centres undefined) -0.545

Further, for O=C1O[C@@H](c2ccccc2)[C@@H](c2ccccc2)N2[C@@H](c3ccccc3OCCO)[C@]3(C(=O)Nc4ccc(C#CC5(O)CCCCCC5)cc43)[C@@H](C(=O)N3CCCCCCC3)[C@H]12 ? -0.64

Another compound to look at: CCOC(=O)C[C@H]1[C@H](OC(=O)c2ccccc2-c2ccccc2)[C@@H](NC(=O)CC(C)C)c2cc(OCCCO)ccc2N1C(=O)c1ccccc1 1.65

What would you report for COC(=O)C(CC#Cc1ccc2c(c1)[C@]1(C(=O)N2)[C@H](C(=O)NC[C@H](O)c2ccccc2)[C@H]2C(=O)O[C@H](c3ccccc3)[C@H](c3ccccc3)N2[C@@H]1c1ccc(O)cc1)C(=O)OC ? 0.489

Check C[C@]1(C(=O)NC2CC2)c2ccccc2C(=O)N(Cc2cc(F)cc(C(F)(F)F)c2)[C@H]1c1ccc(CO)cc1 too. 1.79

And the next one, Cc1ccc(S(=O)(=O)N2[C@@H](c3ccccc3)C(C(=O)O)=C[C@H]2C(C)(C)C)cc1 ? -1.11

Please answer likewise for O=C1NC(=O)C2C1C=CC(C(O)c1ccc(F)cc1)N2Nc1ccc(Cl)cc1Cl (centres undefined) -2.11

Record: CCN1C(=O)C2CC(=O)C3C(CN(S(=O)(=O)c4ccc(C)cc4)C3c3ccc(C)cc3)C2C1=O (centres undefined) -0.064

Now give it for O=C(CS)NCCCCCCNC(=O)[C@H]1C[C@H]2C(=O)NCC(=O)N2[C@H]1c1cccc(OCCO)c1 too. -0.15

----------
For each entry below, report its composite z-score value.
- Test system: Plasmodium falciparum Sir2 (PF13_0152, Sir2A)
- Protocol Summary: pfSir2 binders on small-molecule microarrays, primary screen, biochemical, small-molecule microarray, 635 nm fluorescence (AID 1098);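 note: score merges spot fluorescence intensity with its signal-to-noise ratio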
- Study Conditions: small-molecule microarray binding, fluorescence 635 nm; higher = more signal
The answer should be written as a number, with no unit following it.

Lab note: need composite z-score with Plasmodium falciparum Sir2 (PF13_0152, Sir2A) for entry CCCCC(=C=CC[C@@H](O)c1ccc(OCCO)cc1)CCO , please look it up. 0.413

Item: CC1CC/C=C\[C@H]2OC34C=CCN(CCN5CCOCC5)C(=O)[C@H]3N(C(CO)C(C)C)C(=O)[C@@H]4C2C(=O)O1 (some centres undefined) 1.5

Do the same for COc1cc(CO)cc(I)c1O[C@H]1C=C(C(=O)NCCO)C[C@@H](N(CCN2CCOCC2)C(=O)C2CCCO2)[C@@H]1O (some centres undefined) please 0.226

Same for O=C1NC(=O)C2C1C=CC(C(O)c1ccc(F)cc1)N2Nc1ccc(Cl)cc1Cl (centres undefined) -0.315

----------
- Protocol Summary: small-molecule binders of probe aNOTCH3, primary screen, biochemical, small-molecule microarray, 635/667 nm fluorescence (AID 1120);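 note: probe is a biotin-tagged antibody raised against NOTCH3 rather than NOTCH3 protein; score merges spot fluorescence near 667 nm with spot signal to noise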
- Study Conditions: higher = more signal
Could you label it 1 (yes) if measured composite z-score is -0.02 or higher, and 0 (no) otherwise?

Exam item: decide whether the reported composite z-score for C=C(CC1([C@@H](NP(=O)(c2ccccc2)c2ccccc2)[C@H]2C[C@@H]2CCCC)CC1)c1cccc(OC)c1 is at least -0.02. 1 (yes)

What about this compound? COCCOC(=O)N1C(=O)[C@@]2(c3cc(C#CCNC(N)=O)ccc31)[C@H](C(=O)N1CCN(c3ncccn3)CC1)[C@H]1C(=O)O[C@H](c3ccccc3)[C@H](c3ccccc3)N1[C@@H]2c1ccc(O)cc1 0 (no)

Input COc1ccc(-c2cc3c(c(CCc4ccccc4)n2)[Si](C(C)C)(C(C)C)O[C@H]3c2ccccc2)cn1 0 (no)

Please answer likewise for O=C/C=C/c1ccc(-c2ccccc2)cc1 0 (no)

Also check COCCCNC(=O)[C@@]1(c2ccc([N+](=O)[O-])cc2)CC(=O)N(C2CCCCC2)[C@@H]1c1ccc(CO)cc1I 0 (no)

# iterate: O=C1OCCC/C=C\[C@H]2OC34C=CCN(Cc5ccccc5)C(=O)[C@H]3N(CCO)C(=O)[C@@H]4C12 (some centres not stated) 1 (yes)

Now the same for O=C1C2C=CC(C(O)C3CC=CCC3)N(Nc3ccc([N+](=O)[O-])cc3)C2C(=O)N1c1ccccc1 (configuration not stated) 1 (yes)

----------
- Target Or System: Albumin (Bos taurus) (UniProt P02769)
- Sequence (P02769 whole entry, looked up): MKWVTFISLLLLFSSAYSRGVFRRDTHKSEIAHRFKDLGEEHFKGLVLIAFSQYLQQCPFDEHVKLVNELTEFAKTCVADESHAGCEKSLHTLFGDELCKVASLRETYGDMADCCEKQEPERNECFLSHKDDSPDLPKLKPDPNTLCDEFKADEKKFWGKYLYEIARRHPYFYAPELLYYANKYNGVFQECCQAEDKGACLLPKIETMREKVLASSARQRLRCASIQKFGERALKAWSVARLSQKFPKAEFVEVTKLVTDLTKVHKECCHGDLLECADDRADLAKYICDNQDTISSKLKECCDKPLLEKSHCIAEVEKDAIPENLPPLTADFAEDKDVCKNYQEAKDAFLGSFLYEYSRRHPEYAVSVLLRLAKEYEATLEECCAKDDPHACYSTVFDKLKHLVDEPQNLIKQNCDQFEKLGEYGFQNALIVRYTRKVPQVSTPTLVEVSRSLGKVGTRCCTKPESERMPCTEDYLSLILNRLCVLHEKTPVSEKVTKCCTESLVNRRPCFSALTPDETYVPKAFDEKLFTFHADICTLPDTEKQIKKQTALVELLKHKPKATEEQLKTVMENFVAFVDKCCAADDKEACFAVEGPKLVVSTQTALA
- Protocol Summary: bovine serum albumin binders on microarray, profiling panel, artefact control for SMM control protein annotation, biochemical, small-molecule microarray, Alexa647 label, 635/667 nm fluorescence (AID 1118);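 note: score merges 667 nm emission intensity and signal-to-noise per printed compound spot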
- Study Conditions: BSA-A647 binding, fluorescence 635 nm, higher = more signal
composite z-score class ranges: bin 0 (below 0.04), bin 1 (0.04 to below 0.4), bin 2 (0.4 or more)

For this molecule, which bin applies? CC[C@H]1C2=C3C(CC[C@H]4C(OCc5ccc(F)cc5C(F)(F)F)OC[C@](C)([C@@H]34)N(C(=O)OC(C)(C)C)C2)C(COC(C)=O)C1COC(C)=O (stereo partly drawn) bin 2

Repeat with OCCCc1cc[n+](Cc2cc3c(cc2Br)OCO3)cc1 bin 0

Request: C=CCC(OC(C)=O)[C@@H]1[C@@H](N(Cc2ccc(-c3ccccc3)cc2)C(=O)Cc2ccc(OC)cc2)c2cc(OCCCO)ccc2N1C(=O)c1ccc2ccccc2c1 (stereo partly drawn) bin 1

Record: COc1cc(Cc2cc3c(c(-c4ccccc4)n2)[Si](C(C)C)(C(C)C)OC3)cc(OC)c1OC bin 0

Please answer likewise for C=C(COC)C(=O)CC[C@@H](OC(=O)c1ccccc1-c1ccccc1C(=O)O)c1ccccc1OCCO bin 0

Then what about the molecule [N-]=[N+]=NCc1ccccc1[C@H]1OC(c2ccc(OCCCO)cc2)=N[C@@]1(Cc1ccccc1N=[N+]=[N-])C(=O)O ? bin 2

COCCOC(=O)N1C(=O)[C@@]2(c3cc(C#CCCO)ccc31)[C@H](c1ccc(O)cc1)N1[C@H](c3ccccc3)[C@H](c3ccccc3)OC(=O)[C@H]1[C@@H]2C(=O)NC[C@H](O)c1ccccc1 ? bin 2

Try COC(=O)c1c2oc(c1C(=O)OC)C(=O)N[C@H](Cc1ccccc1)Cn1cc(nn1)C1(CCCCC1)NC(=O)N[C@H](CO)CC2 next. bin 1

Same lookup for O=C1c2ccccc2[C@](Cc2ccccc2I)(C(=O)NCCN2CCOCC2)[C@H](c2ccc(CO)cc2)N1Cc1ccccc1C(F)(F)F , please. bin 2

How about C=CCOC(=O)[C@H]1[C@@H]2C(=O)O[C@@H](c3ccccc3)[C@@H](c3ccccc3)N2[C@@H](c2ccc(OCCOC(=O)[C@@H]3C[C@@H]4C(=O)N[C@@H](Cc5ccccc5)C(=O)N4[C@@H]3c3ccc(O)cc3)cc2)[C@]12C(=O)Nc1ccc(I)cc12 ? bin 0

Then this molecule: COC(=O)[C@@]1(Cc2ccc(F)cc2)[C@@H]2C(=CC(=O)[C@H]2CC(=O)C(=O)N2CCCC2)CN1C(=O)c1ccccc1 bin 2

Moving on to the next molecule: CCCCCCc1nc(Cc2cc(OC)c(OC)c(OC)c2)c(C)c2c1[Si](C(C)C)(C(C)C)OC2 bin 0
